Where these numbers come from: patent US9296778B2

# RUN_DESCRIPTION: Stability in fresh human whole blood
# Type: in vitro ADME
# DETAILS: 0.5 μM, percent unchanged test compound
Classify by measured Stability WB_Human (37° C.; 2 hr): rule met if it is equal to or exceeds 60%, rule not met if it is smaller.

| COMPOUND | CATEGORY |
| --- | --- |
| CCOc1nc(N)nc2c1ncn2C1OC2COP(=O)(OCC(NC(=O)OC)C(=O)OC(C)C)OC2C1(C)O (single isomer, unassigned; diastereomer 1) [Compound 14 Diastereomer 1] | rule met |
| CCOC(=O)CCOP1(=O)OC[C@H]2O[C@@H](n3cnc4c(OCC)nc(N)nc43)[C@](C)(F)[C@@H]2O1 (single isomer, unassigned; diastereomer 1) [Compound 8 Diastereomer 1] | rule met |
| CCOC(=O)COP1(=O)OC[C@H]2O[C@@H](n3cnc4c(OCC)nc(N)nc43)[C@](C)(F)[C@@H]2O1 (single isomer, unassigned; diastereomer 1) [Compound 7 Diastereomer 1] | rule not met |

# evaluate next
q: Hi, just wondering whether CCOc1nc(N)nc2c1ncn2[C@@H]1O[C@@H]2COP(=O)(OCCSSC(C)(C)C)O[C@H]2[C@@]1(C)F (single isomer, unassigned) [Compound 24 Diastereomer 1] shows Stability WB_Human (37° C.; 2 hr) of 60% or higher.
a: rule met
